Read-out: Broad substrate specificity ATP-binding cassette transporter ABCG2 (Homo sapiens)
measurement.notes: LTEA_HepaRG_ABCG2: Life Technologies and Expression Analysis (LTEA) Assay for ABC Transporter (ABCG2) using HepaRG (AID 2283465)
run.conditions: mRNA level, 48 h; actives raise or lower the signal
Calls of active or inactive are those of the source. Rule for the calls: active = hit-call score of the fitted dose curve at least 0.9, where 1 is the maximum; inactive = score below 0.9.
Respond only with the outcome that fits, drawn from true (1) for active, false (0) for inactive

Solved cases below.
[
  {
    "molecule": "Oc1ccc(Cl)cc1Cc1ccccc1",
    "class.name": "false (0)"
  },
  {
    "molecule": "CC(C)(C)C(O)C(Oc1ccc(Cl)cc1)n1cncn1 (stereo not drawn)",
    "class.name": "false (0)"
  },
  {
    "molecule": "COP(=S)(OC)Oc1ccc(SC)c(C)c1",
    "class.name": "true (1)"
  },
  {
    "molecule": "CCCN(CCOc1c(Cl)cc(Cl)cc1Cl)C(=O)n1ccnc1",
    "class.name": "true (1)"
  },
  {
    "molecule": "Clc1ccccc1-c1nnc(-c2ccccc2Cl)nn1",
    "class.name": "true (1)"
  },
  {
    "molecule": "COP(=S)(OC)Oc1ccc([N+](=O)[O-])cc1",
    "class.name": "false (0)"
  }
]

Request: Name the outcome recorded for O=C(O)C(F)(F)C(F)(F)C(F)(F)C(F)(F)C(F)(F)C(F)(F)C(F)(F)F in the assay.
Response: false (0)

Request: Name the outcome recorded for O=C(Nc1ccccc1)Nc1cnns1 in the assay.
Response: false (0)
